Molecular target: T1, recombinant human Tau monomer, 2N4R isoform (amino acids 2-441) (human, UniProt P10636-8 2-441)
T1 construct: range 2-441; N-terminal His-tag removed with TEV protease; also called monomeric Tau
T1 sequence (P10636 other isoform, or with tags, fused parts or gaps limits assumed): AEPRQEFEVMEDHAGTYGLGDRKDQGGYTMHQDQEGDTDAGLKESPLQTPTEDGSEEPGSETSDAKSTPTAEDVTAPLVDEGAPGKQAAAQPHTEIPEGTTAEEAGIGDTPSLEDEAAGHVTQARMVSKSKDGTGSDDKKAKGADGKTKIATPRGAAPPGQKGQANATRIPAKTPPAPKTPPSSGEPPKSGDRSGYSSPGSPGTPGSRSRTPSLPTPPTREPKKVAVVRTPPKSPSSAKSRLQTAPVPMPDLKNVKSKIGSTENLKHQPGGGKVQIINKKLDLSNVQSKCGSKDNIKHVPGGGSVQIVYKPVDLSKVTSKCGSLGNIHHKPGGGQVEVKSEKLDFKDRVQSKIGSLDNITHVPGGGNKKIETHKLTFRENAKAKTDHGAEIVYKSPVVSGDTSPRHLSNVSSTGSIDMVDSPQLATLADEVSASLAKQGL
Assay: SPR screen, hIgG captured, Tau monomer analyte
Assignment: determine reported Kd for the given binders.

Binder	Result value
hu125B11 HC3 + 125B11 LC2 (antibody, V domains shown) VH: EVQLVESGGGLVQPGGSLRLSCAASRFIFSNYWMNWVRQAPGKGLEWVAQIRLKSDNYATHYAESVKGRFTISRDDSKNTLYLQMNSLRAEDTAVYYCTGGTTYWGQGTLVTVSS VL: DIQMTQSPSSLSASVGDRVTITCKASQNVGTAVAWYQQKPGKAPKLLIYSASIRYTGVPSRFSGSGSGTDFTLTISSLQPEDFATYFCQQFRTYPYTFGQGTKVEIK	19 nM
hu125B11 HC1 + 125B11 LC4 (antibody, V domains shown) VH: EVQLVESGGGLVQPGGSLRLSCAASRFIFSNYWMNWVRQAPGKGLEWVAQIRLKSDNYATHYAESVKGRFTISRDDSKNTVYLQMNSLRAEDTAVYYCTGGTTYWGQGTLVTVSS VL: DIQMTQSPSSLSASVGDRVTITCKASQNVGTAVAWYQQKPGKAPKLLIYSASIRYTGVPSRFSGSGSGTDFTLTISSLQPEDFATYYCQQFRTYPYTFGQGTKVEIK	23 nM
hu125B11 HC3 + 125B11 LC3 (antibody, V domains shown) VH: EVQLVESGGGLVQPGGSLRLSCAASRFIFSNYWMNWVRQAPGKGLEWVAQIRLKSDNYATHYAESVKGRFTISRDDSKNTLYLQMNSLRAEDTAVYYCTGGTTYWGQGTLVTVSS VL: DIQMTQSPSSLSASVGDRVTITCKASQNVGTAVAWYQQKPGKSPKLLIYSASIRYTGVPSRFSGSGSGTDFTLTISSLQPEDFATYYCQQFRTYPYTFGQGTKVEIK	20 nM
hu125B11 HC2 + 125B11 LC4 (antibody, V domains shown) VH: EVQLVESGGGLVQPGGSLRLSCAASRFIFSNYWMNWVRQAPGKGLEWVAQIRLKSDNYATHYAESVKGRFTISRDNSKNTVYLQMNSLRAEDTAVYYCTGGTTYWGQGTLVTVSS VL: DIQMTQSPSSLSASVGDRVTITCKASQNVGTAVAWYQQKPGKAPKLLIYSASIRYTGVPSRFSGSGSGTDFTLTISSLQPEDFATYYCQQFRTYPYTFGQGTKVEIK	22 nM

(Q) Fill blank: measured Kd of the binder hu125B11 HC4 + hu113F5-F7 LC2 (antibody, V domains shown) VH: EVQLVESGGGLVQPGGSLRLSCAASRFIFSNYWMNWVRQAPGKGLEWVAQIRLKSDNYATHYAESVKGRFTISRDNSKNTLYLQMNSLRAEDTAVYYCTGGTTYWGQGTLVTVSS VL: DIQMTQSPSSLSASVGDRVTITCKASQNVGTAVAWYQQKPGKAPKLLIYSASRRFSGVPSRFSGSGSGTDFTLTISSLQPEDFATYFCQQFSTYPYTFGQGTKVEIK is ____.
(A) 47 nM
